The measured values listed here are drawn from ChEMBL document CHEMBL3351530.

species: Homo sapiens; assay: Selectivity ratio of Ki for human recombinant matriptase-2 to Ki for human recombinant matriptase
attributeMeasured: Ratio Ki
API doc: respond with a numeric literal and nothing else, no unit.

> print(dat)
                                 testsmiles  measured
1  N=C(N)NCCC[C@H](NC(=O)[C@@H](N)Cc1c[nH]c2ccccc12)C(=O)N[C@@H](CCC(=O)O)C(=O)N[C@@H](CCCNC(=N)N)C(=O)c1nc2ccccc2s1         3
2  N=C(N)NCCC[C@H](NC(=O)[C@H](Cc1ccc(O)cc1)NC(=O)[C@H](CCC(N)=O)NC(=O)[C@@H](N)CCCNC(=N)N)C(=O)c1nc2ccccc2s1         4
3  C[C@H](NC(=O)[C@H](CC(N)=O)NC(=O)[C@@H](N)CCCCN)C(=O)N[C@@H](CCCNC(=N)N)C(=O)c1nc2ccccc2s1        62

query: Suppose we examine the compound "C[C@H](NC(=O)[C@H](Cc1ccc(O)cc1)NC(=O)[C@@H](N)CCCNC(=N)N)C(=O)N[C@@H](CCCNC(=N)N)C(=O)c1nc2ccccc2s1" ; what Ratio Ki value has been reported?
result: 45

query: Which Ratio Ki reading was recorded for the compound "C[C@H](NC(=O)[C@H](CCC(N)=O)NC(=O)[C@@H](N)CO)C(=O)N[C@@H](CCCNC(=N)N)C(=O)c1nc2ccccc2s1" ?
result: 378

query: Fill in: Ratio Ki of "CC(C)C[C@H](N)C(=O)N[C@@H](Cc1c[nH]c2ccccc12)C(=O)N[C@@H](Cc1c[nH]c2ccccc12)C(=O)N[C@@H](CCCNC(=N)N)C(=O)c1nc2ccccc2s1" is ___
result: 0.63

---

target: Suppressor of tumorigenicity 14 protein (Homo sapiens, UniProt Q9Y5Y6); experiment: Inhibition of human recombinant matriptase using Boc-Gln-Ala-Arg-AMC as substrate by microplate reader analysis
# key: entry, value: pKi
// pKi here means minus log10 of the molar concentration (mol/L)

query: Can you look up the measured pKi of "CC(C)C[C@H](N)C(=O)N[C@@H](Cc1c[nH]c2ccccc12)C(=O)N[C@@H](Cc1c[nH]c2ccccc12)C(=O)N[C@@H](CCCNC(=N)N)C(=O)c1nc2ccccc2s1" for me?
result: 8.49

query: Returns the measured pKi for the input compound. Input: "CC(C)C[C@H](NC(=O)[C@@H](N)CCCNC(=N)N)C(=O)N[C@@H](CO)C(=O)N[C@@H](CCCNC(=N)N)C(=O)c1nc2ccccc2s1"
result: 8.85

query: Suppose we examine the compound "N=C(N)NCCC[C@H](NC(=O)[C@H](Cc1ccc(O)cc1)NC(=O)[C@H](CS)NC(=O)[C@@H](N)Cc1c[nH]c2ccccc12)C(=O)c1nc2ccccc2s1" ; what pKi value has been reported?
result: 8.10

query: Endpoint output: pKi of "CC(C)[C@H](NC(=O)[C@H](Cc1ccc(O)cc1)NC(=O)[C@@H](N)Cc1ccc(O)cc1)C(=O)N[C@@H](CCCNC(=N)N)C(=O)c1nc2ccccc2s1" . Value?
result: 7.50

query: // pKi lookup, key: "C[C@H](NC(=O)[C@H](CC(N)=O)NC(=O)[C@@H](N)CCCCN)C(=O)N[C@@H](CCCNC(=N)N)C(=O)c1nc2ccccc2s1"
result: 9.35

query: Tell me the measured pKi of "C[C@H](NC(=O)[C@H](CCCNC(=N)N)NC(=O)[C@@H](N)CCCNC(=N)N)C(=O)N[C@@H](CCCNC(=N)N)C(=O)c1nc2ccccc2s1" , please.
result: 9.14

---

Items are presented alongside their recorded pKi.
Target: Suppressor of tumorigenicity 14 protein (Homo sapiens, UniProt Q9Y5Y6)
Sequence (Q9Y5Y6 whole entry): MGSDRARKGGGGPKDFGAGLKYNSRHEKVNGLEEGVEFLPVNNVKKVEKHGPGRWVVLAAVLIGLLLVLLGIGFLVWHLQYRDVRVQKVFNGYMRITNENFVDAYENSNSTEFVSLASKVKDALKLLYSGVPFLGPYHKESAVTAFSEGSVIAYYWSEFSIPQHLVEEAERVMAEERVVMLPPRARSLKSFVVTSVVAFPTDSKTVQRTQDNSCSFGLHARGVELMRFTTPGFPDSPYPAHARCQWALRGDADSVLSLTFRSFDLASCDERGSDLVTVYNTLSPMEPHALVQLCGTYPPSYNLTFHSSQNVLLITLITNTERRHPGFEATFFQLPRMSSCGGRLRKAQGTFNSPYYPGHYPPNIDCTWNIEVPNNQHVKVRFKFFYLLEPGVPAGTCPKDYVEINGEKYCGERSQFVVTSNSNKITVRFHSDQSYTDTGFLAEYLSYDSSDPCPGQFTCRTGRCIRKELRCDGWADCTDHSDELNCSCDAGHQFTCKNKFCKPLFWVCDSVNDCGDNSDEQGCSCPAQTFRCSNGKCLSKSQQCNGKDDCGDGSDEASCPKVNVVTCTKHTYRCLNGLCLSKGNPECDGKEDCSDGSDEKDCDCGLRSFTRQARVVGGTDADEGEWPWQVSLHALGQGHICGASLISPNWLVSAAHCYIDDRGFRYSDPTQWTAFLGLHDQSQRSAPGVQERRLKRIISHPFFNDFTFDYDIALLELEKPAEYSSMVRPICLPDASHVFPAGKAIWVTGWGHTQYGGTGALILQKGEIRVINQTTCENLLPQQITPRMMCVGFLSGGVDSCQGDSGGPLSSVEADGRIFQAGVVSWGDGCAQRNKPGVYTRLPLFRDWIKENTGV
Assay: Inhibition of human recombinant matriptase using Boc-Gln-Ala-Arg-AMC as substrate by microplate reader analysis
Just the number, please; pKi means minus log10 of the concentration in mol/L.

Record excerpt, results attached:
> print(dat)
                                 testsmiles  attributemeasured  measured
1  N=C(N)NCCC[C@H](NC(=O)[C@@H]1CCCN1C(=O)[C@H](CCC(N)=O)NC(=O)[C@@H](N)CCCNC(=N)N)C(=O)c1nc2ccccc2s1                pKi     10.21
2  C[C@H](NC(=O)[C@H](CCC(N)=O)NC(=O)[C@@H](N)CO)C(=O)N[C@@H](CCCNC(=N)N)C(=O)c1nc2ccccc2s1                pKi     10.04

Please look at the following compound next.
query: Report pKi for "N=C(N)NCCC[C@H](NC(=O)[C@@H](N)Cc1c[nH]c2ccccc12)C(=O)N[C@@H](CCC(=O)O)C(=O)N[C@@H](CCCNC(=N)N)C(=O)c1nc2ccccc2s1" please.
result: 7.83

---

organism: Homo sapiens; assay: Selectivity ratio of Ki for human recombinant matriptase-2 to Ki for human recombinant matriptase
Parameter: Ratio Ki. Scope: all listed entries.
Provide a numeric answer; units are not to be included.

> print(dat)
                                 testsmiles  attributemeasured  measured
1  CC(C)C[C@H](N)C(=O)N[C@@H](CCC(N)=O)C(=O)N[C@@H](C)C(=O)N[C@@H](CCCNC(=N)N)C(=O)c1nc2ccccc2s1           Ratio Ki        90
2  N=C(N)NCCC[C@H](NC(=O)[C@H](Cc1ccc(O)cc1)NC(=O)[C@H](CS)NC(=O)[C@@H](N)Cc1c[nH]c2ccccc12)C(=O)c1nc2ccccc2s1           Ratio Ki      0.13
3  N=C(N)NCCC[C@H](NC(=O)[C@@H]1CCCN1C(=O)[C@H](CCC(N)=O)NC(=O)[C@@H](N)CCCNC(=N)N)C(=O)c1nc2ccccc2s1           Ratio Ki       128
4  C[C@H](NC(=O)[C@H](CCCNC(=N)N)NC(=O)[C@@H](N)CCCNC(=N)N)C(=O)N[C@@H](CCCNC(=N)N)C(=O)c1nc2ccccc2s1           Ratio Ki        22
5  CC(C)[C@H](NC(=O)[C@H](Cc1ccc(O)cc1)NC(=O)[C@@H](N)Cc1ccc(O)cc1)C(=O)N[C@@H](CCCNC(=N)N)C(=O)c1nc2ccccc2s1           Ratio Ki      0.08

Query compound follows.
query: What does the record list as Ratio Ki for "C[C@H](NC(=O)[C@H](CCCCN)NC(=O)[C@@H](N)Cc1ccc(O)cc1)C(=O)N[C@@H](CCCNC(=N)N)C(=O)c1nc2ccccc2s1" ?
result: 23

---

Ratio Ki listing for selected compounds.
organism: Homo sapiens; experiment: Selectivity ratio of Ki for human recombinant matriptase-2 to Ki for human recombinant matriptase
In your answer, state the number alone without any accompanying words.

Below are worked cases with known answers.
> print(dat)
                                 testsmiles  attributemeasured  measured
1  N=C(N)NCCC[C@H](NC(=O)[C@H](Cc1ccccc1)NC(=O)[C@H](CCC(N)=O)NC(=O)[C@@H](N)CCCNC(=N)N)C(=O)c1nc2ccccc2s1           Ratio Ki         6
2  N=C(N)NCCC[C@H](NC(=O)[C@@H]1CCCN1C(=O)[C@H](CC(N)=O)NC(=O)[C@@H](N)CCCNC(=N)N)C(=O)c1nc2ccccc2s1           Ratio Ki        49

Now take the following compound into account.
query: Any idea what its Ratio Ki is? The compound is "CC(C)C[C@H](NC(=O)[C@@H](N)CCCNC(=N)N)C(=O)N[C@@H](CO)C(=O)N[C@@H](CCCNC(=N)N)C(=O)c1nc2ccccc2s1"
result: 1.79
